Just for reference, ChEMBL document CHEMBL3507680 is where these values come from.

Below, each entry is listed with its recorded cytotoxicity at 70.5 h.
- testSummary: Human HepG2 cell viability assay in 384 well format
- Assay type: toxicity, cell-based
- Set-up: dose 125 nL, time 70.5 hour; concentration not given beside the values
- conditionDescription: HepG2 cells, read-out: Inhibition
valueKind: cytotoxicity at 70.5 h (%)

{"compound": "CCN(Cc1cnn(C)c1)C(=O)c1cc2ccccc2c(=O)[nH]1", "result": -7.09}
{"compound": "c1ccc(OCCNC2CCCN(Cc3noc(C4CC4)n3)C2)cc1 (configuration not stated)", "result": -7.17}
{"compound": "CCN(CC(=O)Nc1cc(Cl)ccc1C)C(=O)c1ccc(=O)[nH]n1", "result": -2.64}
{"compound": "CC(=O)N1CCC(C(=O)NC(C)c2cccc(OC(F)F)c2)CC1 (configuration not stated)", "result": 1.57}
{"compound": "CCN(CC)c1ccc(CNC(=O)c2ccc(=O)[nH]n2)cn1", "result": -13.1}
{"compound": "Cc1nc(C2CCCN2CC(=O)NCCc2ccsc2)no1 (configuration not stated)", "result": -2.7}
{"compound": "Cc1ncc(CN(C)C2CCCN(CCc3ccccc3)C2)n1C (configuration not stated)", "result": -9.12}
{"compound": "Clc1cccc(-c2noc(CCN3CCN(c4ccncc4)CC3)n2)c1", "result": 4}
{"compound": "CCc1nc(C2CCCN2C(=O)c2ccc3c(c2)nnn3CC)no1 (configuration not stated)", "result": -3.25}
{"compound": "Cc1noc([C@H]2CC[C@@H]3[C@@H](CCN3S(=O)(=O)C3CC3)O2)n1", "result": -3.57}
{"compound": "COc1c(F)ccc(C(=O)N2CC[C@H](CO)[C@@H](O)C2)c1F", "result": -3.48}
{"compound": "CC1(C)CN(CC(=O)NCc2ccccc2F)C[C@]1(C)O", "result": -9.16}
{"compound": "Cc1nnc(CN(Cc2ccccc2Br)C2CC2)o1", "result": -8.83}
{"compound": "Cc1nnc2n1CCN(CC(=O)Nc1cc(C(C)C)no1)C2", "result": -8.51}
{"compound": "CC(C)c1cc(C(=O)N2CCc3ccccc3C2C(=O)O)n(C)n1 (configuration not stated)", "result": -5.14}
{"compound": "O=C1CN(C(=O)c2cc(Cl)ccc2F)c2ccncc2N1", "result": -8.1}
{"compound": "Cc1ccccc1CCNC(=O)CN1CCCC(Cn2cncn2)C1 (configuration not stated)", "result": -3.82}
{"compound": "COCCN1C[C@@H]2[C@@H](OC)CCN(Cc3ccc(C)o3)[C@@H]2C1", "result": -1.05}
{"compound": "CN1CCCC1CCNC(=O)c1ccccc1-n1cnc(CN)c1 (configuration not stated)", "result": 0.899}
{"compound": "CCc1nc2c(c(N3CCOCC3)n1)CCN(C(=O)N1CCCC1)CC2", "result": -6.31}
{"compound": "Cc1noc(C)c1S(=O)(=O)NCC(C)(O)c1ccc2c(c1)OCO2 (configuration not stated)", "result": -3.11}
{"compound": "Cc1nnc2n1CCN(C(=O)C(C)Oc1ccc(C#N)cc1)C2 (configuration not stated)", "result": -12.4}
{"compound": "CN(C(=O)CC1=CCCCC1)C1CCCN(CCc2ccccc2)C1 (configuration not stated)", "result": -5.66}
{"compound": "CNC(=O)CCc1cc(C)nc(C2CCN(C3CCCCC3)CC2)c1", "result": -0.853}
{"compound": "CCOc1ccnc(NCc2nc(C)cc(C(F)(F)F)n2)n1", "result": -0.888}
{"compound": "Nc1cc(CCC2CN(Cc3ccc4c(c3)OCCO4)CCO2)ccn1 (configuration not stated)", "result": 0.977}
{"compound": "Cc1ccc(CNCC2CCCn3ccnc32)s1 (configuration not stated)", "result": -4.1}
{"compound": "N#CC1(NC(=O)c2c(F)ccc(OC(F)F)c2F)CCOCC1", "result": -9.56}
{"compound": "N#Cc1cccc(N2CCCC3(CN(C(=O)NC4CC4)CCO3)C2)c1 (configuration not stated)", "result": -1.09}
{"compound": "Cc1cc(C)n(CC2CCCN2CCS(=O)(=O)c2ccccc2)n1 (configuration not stated)", "result": -24.2}
{"compound": "CCSc1ccc(C(=O)N2CCC3(CCC(=O)N(C)C3)CC2)s1", "result": -9.54}
{"compound": "Cc1nc(C(=O)N2CCN(C(C)c3ccccc3F)CC2)cs1 (configuration not stated)", "result": -1.44}
{"compound": "Cc1ccc(CN2CCc3c(nc4cc(C5CC5)nn4c3O)C2)s1", "result": 18.3}
{"compound": "CC1CCC(NC(=O)NCC(C)(C)CCS(C)(=O)=O)CC1 (configuration not stated)", "result": -4.98}
{"compound": "Cc1noc(C)c1CC(=O)N1CC[C@@](C)(O)[C@H](Oc2ccccc2)C1", "result": -2.99}
{"compound": "Cn1nccc1-c1nnn2c1COCC(CNC1CCOCC1)C2 (configuration not stated)", "result": 0.0787}
{"compound": "CCS(=O)(=O)N1CCn2c(COCC3CCOCC3)cnc2C1C (configuration not stated)", "result": -5.13}
{"compound": "O=C1OCCN1CCNc1ncc2c(n1)CCN2c1ccccc1", "result": -6.11}
{"compound": "Cn1ncc2c1C(COCC1CC1)CN(Cc1ccc(F)cc1)C2 (configuration not stated)", "result": 25.3}
{"compound": "CC(C)(O)CNC(=O)c1sccc1Br", "result": 0.0507}
{"compound": "Cc1nccc(C(=O)N2CCCC2c2noc(C(C)C)n2)n1 (configuration not stated)", "result": 22.8}
{"compound": "O=C(O)[C@H]1CN(Cc2ccccc2)C[C@@H]1C(=O)c1ccccc1", "result": -3.77}
{"compound": "COCC(=O)N1CCCC(c2cccc(-n3ccnc3)n2)C1 (configuration not stated)", "result": 4.64}
{"compound": "Cn1c(CN2CCCC2c2noc(C3CC3)n2)cc(=O)n(C)c1=O (configuration not stated)", "result": -9.32}
{"compound": "c1cnc(-c2nn3c(CN4CCCCC4)nnc3s2)cn1", "result": -6.5}
{"compound": "Cc1ccc2c(cnn2CCC(=O)NCc2csc(C)n2)c1", "result": -14.7}
{"compound": "CCc1nc(CN2CCCN(C(=O)c3cnc[nH]3)CC2)cs1", "result": -14.3}

====

Below, each entry is listed with its recorded cytotoxicity at 70.5 h.
- testSummary: Human HepG2 cell viability assay in 384 well format
- Assay type: toxicity, cell-based
- Parameters: dose 125 nL, time 70.5 hour; concentration not given beside the values
- conditionDescription: HepG2 cells, read-out: Inhibition
valueKind: cytotoxicity at 70.5 h (%)

{"compound": "O=C(c1cn(-c2cc(N3CCOCC3)ncn2)cn1)N1CCSCC1", "valueKind": "cytotoxicity at 70.5 h", "unitName": "%", "result": -2}
{"compound": "COCCN1C[C@@H]2CN(Cc3cccc(C)n3)C[C@@H]2C1=O", "valueKind": "cytotoxicity at 70.5 h", "unitName": "%", "result": -13.6}
{"compound": "CC(C(=O)NCCc1cccs1)N1CCC(n2ccnc2)CC1 (stereo unspecified)", "valueKind": "cytotoxicity at 70.5 h", "unitName": "%", "result": -1.16}
{"compound": "CC(C)(C)OC(=O)Cn1cccc(S(=O)(=O)N2CCCCCC2)c1=O", "valueKind": "cytotoxicity at 70.5 h", "unitName": "%", "result": -12.4}
{"compound": "COCCN(Cc1nc2c(cnn2C)c(=O)[nH]1)C(C)c1ccccc1 (stereo unspecified)", "valueKind": "cytotoxicity at 70.5 h", "unitName": "%", "result": -2.95}
{"compound": "Cc1ccc(C)c(NC(=O)c2n[nH]c(-n3cnnc3)n2)c1", "valueKind": "cytotoxicity at 70.5 h", "unitName": "%", "result": -0.779}
{"compound": "CCS(=O)(=O)N1CCOC2(CCCN(Cc3ccccn3)C2)C1 (stereo unspecified)", "valueKind": "cytotoxicity at 70.5 h", "unitName": "%", "result": -1.63}
{"compound": "CC(C)CN1C(=O)C2(CCN(CC3CCOCC3)C2)c2ccccc21 (stereo unspecified)", "valueKind": "cytotoxicity at 70.5 h", "unitName": "%", "result": -3.07}
{"compound": "Cc1cnn(C2CN(c3ncnc4[nH]ccc34)C2)c1", "valueKind": "cytotoxicity at 70.5 h", "unitName": "%", "result": -3.84}
{"compound": "Cc1nnc2n1CCN(C(=O)c1cc(C)n(-c3ccccn3)c1C)C2", "valueKind": "cytotoxicity at 70.5 h", "unitName": "%", "result": -14}
{"compound": "CNS(=O)(=O)CC(=O)NC(C)Cc1ccc(Br)cc1 (stereo unspecified)", "valueKind": "cytotoxicity at 70.5 h", "unitName": "%", "result": 2.68}
